Data origin, for the record: patent US9416128B2

target: hNaV1.1 (SCN1A) (Homo sapiens, UniProt P35498); assay: Use-dependent inhibition of the CNS NaV1.1 sodium channel; format: cell-based; conditions: % inhibition, use-dependent block at 1 uM; 25 Hz; read-out: Nav1.1 UDB 25 Hz 1 uM
Each entry gets Condition not met if its inhibition at 1 µM stays under 20%, and Condition met if its inhibition at 1 µM is 20% or above.

Solved cases (3 shown):
COc1cc(OC(F)(F)F)ccc1-c1ccc2c(c1)CN(Cc1ccccn1)C(=O)O2    Condition not met
Cc1cnc(CN2Cc3cc(-c4ccc(OC(F)(F)F)cc4F)ccc3OC2=O)nc1    Condition not met
O=C1Oc2ccc(-c3ccc(C(F)(F)F)cc3)cc2CN1Cc1ncccn1    Condition met

Here is another compound to look at.
IN: Does the compound "Cc1csc(CN2Cc3cc(-c4ccc(Cl)c(F)c4)ccc3OC2=O)n1" have recorded inhibition at 1 µM that is 20% or more?
OUT: Condition met

----------
Molecular target: hNaV1.1 (SCN1A) (Homo sapiens, UniProt P35498)
Assay: Use-dependent inhibition of the CNS NaV1.1 sodium channel
Type: cell-based
Settings: % inhibition, use-dependent block at 10 uM; 25 Hz; read-out: Nav1.1 UDB 25 Hz 10 uM
Experimental: HEK-293 cells stably expressing wild-type (WT) hNaV1.1 (SCN1A, NCBI# AB09354) were obtained from Millipore (Cat. # CYL3009) were used to record INa. […] Cells are allowed to stabilize for 10 min after establishment of the whole-cell configuration before current is measured. […] Use-dependent block of NaV1.2 peak current is measured during pulse number 20 of a voltage pulse train (0 mV, 20 ms, 20 pulses, 25 Hz) from a holding potential of −120 mV. […]
Quick reference for inhibition at 10 µM among some compounds
Quick note: give the figure in %, leave out the unit.

Some compounds with known inhibition at 10 µM results, for comparison:
CCCOc1cc(C(F)(F)F)ccc1-c1ccc2c(c1)CN(CCc1ncccn1)C(=O)O2    78.4
COc1cc(OC(F)(F)F)ccc1-c1ccc2c(c1)CN(Cc1ccccn1)C(=O)O2    56.3

IN: Which inhibition at 10 µM value is on record for "CCOc1cc(C(F)(F)F)ccc1-c1ccc2c(c1)CN(Cc1ncccn1)C(=O)O2" ?
OUT: 80.4

----------
Target: wild-type human cardiac sodium channel, hNaV 1.5 (Late INa) (Homo sapiens)
Sequence (Q14524 whole entry): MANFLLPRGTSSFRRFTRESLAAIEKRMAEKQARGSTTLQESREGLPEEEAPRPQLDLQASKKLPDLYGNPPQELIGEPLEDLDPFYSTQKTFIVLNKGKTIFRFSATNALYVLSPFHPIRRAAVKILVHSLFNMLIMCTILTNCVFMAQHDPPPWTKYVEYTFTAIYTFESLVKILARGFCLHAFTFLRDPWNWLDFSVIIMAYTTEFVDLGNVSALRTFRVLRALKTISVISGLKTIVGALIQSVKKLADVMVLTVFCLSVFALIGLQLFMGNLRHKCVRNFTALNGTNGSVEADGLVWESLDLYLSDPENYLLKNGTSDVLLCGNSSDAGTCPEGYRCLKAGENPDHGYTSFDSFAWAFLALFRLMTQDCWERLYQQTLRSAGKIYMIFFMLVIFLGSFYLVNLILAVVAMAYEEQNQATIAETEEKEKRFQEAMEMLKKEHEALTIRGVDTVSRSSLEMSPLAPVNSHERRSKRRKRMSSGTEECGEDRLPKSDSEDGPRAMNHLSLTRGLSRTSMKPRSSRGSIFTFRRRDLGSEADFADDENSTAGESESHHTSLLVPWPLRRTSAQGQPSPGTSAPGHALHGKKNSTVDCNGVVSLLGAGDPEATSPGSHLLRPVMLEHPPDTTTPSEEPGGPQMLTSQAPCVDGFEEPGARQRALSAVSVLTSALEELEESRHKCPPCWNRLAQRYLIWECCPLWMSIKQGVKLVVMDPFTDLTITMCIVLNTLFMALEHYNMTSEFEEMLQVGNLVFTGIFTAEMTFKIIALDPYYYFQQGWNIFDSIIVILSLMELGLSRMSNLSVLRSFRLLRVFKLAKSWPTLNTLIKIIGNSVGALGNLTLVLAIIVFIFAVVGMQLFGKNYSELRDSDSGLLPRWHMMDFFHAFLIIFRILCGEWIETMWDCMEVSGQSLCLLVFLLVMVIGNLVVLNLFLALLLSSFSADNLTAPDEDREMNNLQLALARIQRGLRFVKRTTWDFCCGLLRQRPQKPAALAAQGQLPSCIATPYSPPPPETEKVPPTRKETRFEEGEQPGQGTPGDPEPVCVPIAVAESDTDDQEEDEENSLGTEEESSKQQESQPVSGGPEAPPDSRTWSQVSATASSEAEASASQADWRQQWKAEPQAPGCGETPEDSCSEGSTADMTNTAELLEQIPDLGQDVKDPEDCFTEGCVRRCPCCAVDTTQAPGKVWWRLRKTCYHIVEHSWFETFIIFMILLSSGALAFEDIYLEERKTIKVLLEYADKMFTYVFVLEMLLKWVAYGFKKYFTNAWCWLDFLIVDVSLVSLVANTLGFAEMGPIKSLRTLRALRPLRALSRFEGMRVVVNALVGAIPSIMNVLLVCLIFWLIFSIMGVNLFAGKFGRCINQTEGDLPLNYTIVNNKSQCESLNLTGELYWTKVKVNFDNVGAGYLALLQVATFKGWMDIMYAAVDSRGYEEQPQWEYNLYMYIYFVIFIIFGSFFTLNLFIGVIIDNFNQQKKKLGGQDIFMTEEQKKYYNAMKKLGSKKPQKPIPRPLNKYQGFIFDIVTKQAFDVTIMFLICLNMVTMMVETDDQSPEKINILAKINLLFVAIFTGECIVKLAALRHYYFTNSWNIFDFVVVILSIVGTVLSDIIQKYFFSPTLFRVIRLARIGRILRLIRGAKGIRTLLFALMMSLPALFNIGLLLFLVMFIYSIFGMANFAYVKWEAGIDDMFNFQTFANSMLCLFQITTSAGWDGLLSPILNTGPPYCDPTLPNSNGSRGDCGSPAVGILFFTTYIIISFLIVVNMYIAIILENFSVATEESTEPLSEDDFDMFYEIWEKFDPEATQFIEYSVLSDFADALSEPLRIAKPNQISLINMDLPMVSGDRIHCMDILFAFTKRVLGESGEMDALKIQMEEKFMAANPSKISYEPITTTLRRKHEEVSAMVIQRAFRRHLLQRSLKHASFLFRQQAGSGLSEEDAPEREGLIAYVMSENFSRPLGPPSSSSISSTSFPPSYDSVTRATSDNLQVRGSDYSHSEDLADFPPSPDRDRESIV
Test: Late INa screening assay (whole cell patch clamp, QPatch, Tefluthrin-induced late current)
Format: cell-based
Conditions: HEK293, % inhibition (percent block of late INa) at 1 uM; HEK293 hNaV1.5; 10 μM Tefluthrin; read-out: Nav1.5 Late INa 1 uM
Procedure: The cardiac late sodium current (Late INa) and peak sodium current (Peak INa) assays are performed on an automated electrophysiology platform, QPatch 16X or QPatch HT (Sophion Bioscience, Copenhagen, Denmark) using the whole cell patch clamp technique to measure currents through the cell membrane. […] Results are reported as percent block of late INa and results were analyzed by incorporating rundown correction for the Late INa.
Quick reference for inhibition at 1 µM among some compounds
Quick note: give the figure in %, leave out the unit.

IN: Which inhibition at 1 µM value is on record for "CCOc1cc(C(F)(F)F)ccc1-c1ccc2c(c1)CN(Cc1ncccn1)C(=O)O2" ?
OUT: 49.4

IN: Which inhibition at 1 µM value is on record for "Cc1cc(C(F)(F)F)ccc1-c1ccc2c(c1)CN(Cc1ncccn1)C(=O)O2" ?
OUT: 41.1

IN: Which inhibition at 1 µM value is on record for "CCOc1cc(OC(F)(F)F)ccc1-c1ccc2c(c1)CN(Cc1ncccn1)C(=O)O2" ?
OUT: 49.4

----------
biological target: hNaV1.2 (SCN2A) (Homo sapiens); construct: expressed in transfected cells; assay: Use-dependent inhibition of the CNS NaV1.2 sodium channel; format: cell-based; details: HEK-293; % inhibition, use-dependent block at 1 uM; 25 Hz; read-out: Nav1.2 UDB 25 Hz 1 uM
Sequence (Q99250 whole entry): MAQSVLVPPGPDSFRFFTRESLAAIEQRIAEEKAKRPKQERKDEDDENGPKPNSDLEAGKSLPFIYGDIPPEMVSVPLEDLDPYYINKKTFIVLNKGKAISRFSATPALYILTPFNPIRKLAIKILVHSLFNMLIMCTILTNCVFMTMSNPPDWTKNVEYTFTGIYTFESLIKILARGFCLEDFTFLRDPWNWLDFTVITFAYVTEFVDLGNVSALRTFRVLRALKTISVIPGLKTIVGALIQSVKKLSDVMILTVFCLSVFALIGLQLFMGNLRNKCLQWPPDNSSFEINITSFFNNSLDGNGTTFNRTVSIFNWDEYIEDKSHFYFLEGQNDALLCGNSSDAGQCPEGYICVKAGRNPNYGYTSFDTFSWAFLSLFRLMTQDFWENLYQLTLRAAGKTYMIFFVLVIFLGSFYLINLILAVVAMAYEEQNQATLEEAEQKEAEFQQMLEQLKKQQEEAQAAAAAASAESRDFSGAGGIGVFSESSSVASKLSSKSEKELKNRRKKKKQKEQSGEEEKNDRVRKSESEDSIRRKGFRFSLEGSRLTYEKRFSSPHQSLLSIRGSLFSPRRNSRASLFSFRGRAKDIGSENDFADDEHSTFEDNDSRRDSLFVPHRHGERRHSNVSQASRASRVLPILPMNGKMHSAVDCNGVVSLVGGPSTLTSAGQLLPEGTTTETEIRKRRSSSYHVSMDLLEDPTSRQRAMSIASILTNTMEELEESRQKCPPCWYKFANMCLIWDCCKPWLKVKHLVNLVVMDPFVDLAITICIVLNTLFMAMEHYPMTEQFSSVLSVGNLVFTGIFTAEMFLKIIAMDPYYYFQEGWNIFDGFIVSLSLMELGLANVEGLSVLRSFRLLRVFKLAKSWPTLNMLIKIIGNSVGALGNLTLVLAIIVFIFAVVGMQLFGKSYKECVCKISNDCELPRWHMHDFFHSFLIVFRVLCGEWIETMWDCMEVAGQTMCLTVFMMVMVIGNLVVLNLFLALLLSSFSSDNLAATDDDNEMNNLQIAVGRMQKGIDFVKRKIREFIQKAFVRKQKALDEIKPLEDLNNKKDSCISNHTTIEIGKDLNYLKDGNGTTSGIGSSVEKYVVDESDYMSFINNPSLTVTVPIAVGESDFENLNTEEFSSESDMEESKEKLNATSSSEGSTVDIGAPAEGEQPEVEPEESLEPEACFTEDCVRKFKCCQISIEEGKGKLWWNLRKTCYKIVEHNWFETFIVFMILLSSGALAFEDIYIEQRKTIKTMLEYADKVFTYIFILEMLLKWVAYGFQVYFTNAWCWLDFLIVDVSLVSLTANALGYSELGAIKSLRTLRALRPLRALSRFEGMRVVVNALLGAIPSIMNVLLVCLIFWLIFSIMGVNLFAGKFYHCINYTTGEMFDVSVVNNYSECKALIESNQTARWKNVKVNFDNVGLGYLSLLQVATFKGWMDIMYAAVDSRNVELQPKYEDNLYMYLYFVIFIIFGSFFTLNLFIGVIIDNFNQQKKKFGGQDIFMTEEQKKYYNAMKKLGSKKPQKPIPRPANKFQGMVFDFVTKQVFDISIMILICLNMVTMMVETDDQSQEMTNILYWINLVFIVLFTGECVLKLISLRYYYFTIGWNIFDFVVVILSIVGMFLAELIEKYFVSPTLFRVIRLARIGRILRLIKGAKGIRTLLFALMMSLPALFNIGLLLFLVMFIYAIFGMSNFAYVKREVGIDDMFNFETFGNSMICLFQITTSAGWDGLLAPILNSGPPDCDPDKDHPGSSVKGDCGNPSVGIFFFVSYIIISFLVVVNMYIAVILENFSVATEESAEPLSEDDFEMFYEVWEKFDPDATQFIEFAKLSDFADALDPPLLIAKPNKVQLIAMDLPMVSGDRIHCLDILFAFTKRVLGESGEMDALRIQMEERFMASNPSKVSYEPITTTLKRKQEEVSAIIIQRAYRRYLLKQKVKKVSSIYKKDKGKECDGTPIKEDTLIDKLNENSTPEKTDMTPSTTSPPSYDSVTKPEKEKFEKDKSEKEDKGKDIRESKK
Sequence (Q07699 19-218 partner): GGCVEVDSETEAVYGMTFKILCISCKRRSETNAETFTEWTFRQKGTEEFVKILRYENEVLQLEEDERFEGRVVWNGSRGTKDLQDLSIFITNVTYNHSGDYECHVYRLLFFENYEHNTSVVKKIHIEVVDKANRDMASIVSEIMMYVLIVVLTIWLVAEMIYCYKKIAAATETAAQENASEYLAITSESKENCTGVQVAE
Sequence (O60939 30-215 partner): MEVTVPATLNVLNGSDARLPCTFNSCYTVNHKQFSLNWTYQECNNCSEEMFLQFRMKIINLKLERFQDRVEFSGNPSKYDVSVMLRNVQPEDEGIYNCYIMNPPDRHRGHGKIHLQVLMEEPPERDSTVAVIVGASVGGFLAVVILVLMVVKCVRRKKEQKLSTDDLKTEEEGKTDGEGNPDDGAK
observed property: inhibition at 1 µM
Output should be the measured figure followed by the unit it is expressed in.

Some molecules with known inhibition at 1 µM results, for comparison:
CC1c2cc(-c3ccc(Cl)c(F)c3)ccc2OC(=O)N1Cc1ncccn1 (stereo not shown)    29.9%
Cc1csc(CN2Cc3cc(-c4ccc(OC(F)(F)F)cc4F)ccc3OC2=O)n1    22.6%
O=C1Oc2ccc(-c3ccc(C4(C(F)(F)F)CC4)cc3)cc2CN1Cc1ncccn1    34.1%

Proceeding to the next molecule to report its inhibition at 1 µM.
IN: Which inhibition at 1 µM value is on record for "Cc1ccnc(CN2Cc3cc(-c4ccc(C(F)(F)F)cc4)ccc3OC2=O)n1" ?
OUT: 47.1%

----------
target: hNaV1.1 (SCN1A) (Homo sapiens, UniProt P35498); assay: Use-dependent inhibition of the CNS NaV1.1 sodium channel; type: cell-based; details: % inhibition, use-dependent block at 1 uM; 25 Hz; read-out: Nav1.1 UDB 25 Hz 1 uM
Quick reference for inhibition at 1 µM among some compounds
Quick note: give the figure in %, leave out the unit.

O=C1Oc2ccc(-c3ccc(C(F)(F)F)cc3F)cc2CN1Cc1ncccn1    22.8
Cc1cnc(CN2Cc3cc(-c4ccc(C(F)(F)F)cc4)ccc3OC2=O)nc1    37.5
COc1cc(OC(F)(F)F)ccc1-c1ccc2c(c1)CN(Cc1cccc(C)n1)C(=O)O2    19

Proceeding to the next compound to report its inhibition at 1 µM.
IN: Which inhibition at 1 µM value is on record for "O=C1Oc2ccc(-c3ccc4c(c3)OC(F)(F)O4)cc2CN1Cc1ncccn1" ?
OUT: 14.8
